This collection of values is drawn from ChEMBL document CHEMBL5303573.

Assay: The drug is tested on Clostridium asparagiforme strain: DSM15981 for biotransformation. The drug concentrations were measured before and after a 12-h incubation by liquid-chromatography-coupled mass spectrometry (LC–MS)
Format: ADME
Design: dose 2 uM, timepoint 0 vs 12 hours
Details: enterocloster asparagiformis, 2 µM
Non-standard residues stand in square brackets, D forms with d. Residues, ends and D or L forms follow the SMILES beside them. pGlu = O=C1CC[C@@H](C(=O)O)N1; Thz = O=C(O)[C@@H]1CSCN1
Observed Property: Bacterial Biotransformation

Solved cases below.
- Compound: "COc1ccc2c(c1OC)C(=O)O[C@@H]2[C@H]1c2c(cc3c(c2OC)OCO3)CCN1C"
  Recorded Result: "Compound metabolized"
- Compound: "CN1CCc2cccc3c2[C@H]1Cc1ccc(O)c(O)c1-3"
  Recorded Result: "Compound NOT metabolized"
- Compound: "CCOC(=O)[C@H](CCc1ccccc1)N[C@H]1CCc2ccccc2N(CC(=O)O)C1=O"
  Recorded Result: "Compound metabolized"
- Compound: "CCc1oc2ccccc2c1C(=O)c1cc(Br)c(O)c(Br)c1"
  Recorded Result: "Compound NOT metabolized"
- Compound: "O=C1CC[C@@H](C(=O)N2CSC[C@H]2C(=O)O)N1 [PIDOTIMOD] ([pGlu]-[Thz]-OH)"
  Recorded Result: "Compound NOT metabolized"
- Compound: "C#C[C@]1(O)CC[C@H]2[C@@H]3CCC4=CC(=O)CC[C@@H]4[C@H]3CC[C@@]21CC"
  Recorded Result: "Compound NOT metabolized"
- Compound: "CN1CCC[C@@H]1CCO[C@](C)(c1ccccc1)c1ccc(Cl)cc1.O=C(O)/C=C/C(=O)O [CLEMASTINE FUMARATE]"
  Recorded Result: "Compound NOT metabolized"

Now consider a different compound.
Could you share which Bacterial Biotransformation value was measured for COc1ccnc(C[S+]([O-])c2nc3ccc(OC(F)F)cc3[nH]2)c1OC (stereo not drawn) ?
Compound metabolized

====

Experiment: The drug is tested on Bacteroides pectinophilus strain: ATCC43243 for biotransformation. The drug concentrations were measured before and after a 12-h incubation by liquid-chromatography-coupled mass spectrometry (LC–MS)
Conditions: 2 µM
Observed Property: Bacterial Biotransformation

These recorded examples may help you get a feel for the data.
- Molecule: "CCC(=O)NCC[C@@H]1CCc2ccc3c(c21)CCO3"
  Recorded Result: "Compound NOT metabolized"
- Molecule: "CC(C)OC(=O)C(C)(C)Oc1ccc(C(=O)c2ccc(Cl)cc2)cc1 [FENOFIBRATE]"
  Recorded Result: "Compound metabolized"
- Molecule: "Cc1ccccc1N1C(=O)c2cc(S(N)(=O)=O)c(Cl)cc2NC1C (centres undefined)"
  Recorded Result: "Compound NOT metabolized"
- Molecule: "Cc1cc(C)cc(OCC2CNC(=O)O2)c1 (centres undefined)"
  Recorded Result: "Compound metabolized"

Quick one: Bacterial Biotransformation for CN1CC(=O)N2[C@H](c3ccc4c(c3)OCO4)c3[nH]c4ccccc4c3C[C@@H]2C1=O ?
Compound NOT metabolized

I'd like to know its Bacterial Biotransformation. The molecule in question is COC(=O)Nc1nc2ccc(C(=O)c3ccccc3)cc2[nH]1
Compound NOT metabolized

Sample COc1ccc(CCN(C)CCCC(C#N)(c2ccc(OC)c(OC)c2)C(C)C)cc1OC (centres undefined) — what was its Bacterial Biotransformation?
Compound NOT metabolized

GET /values?readout=Bacterial Biotransformation&item= CC(=O)Oc1ccc(C(c2ccc(OC(C)=O)cc2)c2ccccn2)cc1
Compound metabolized

Data request, read-out Bacterial Biotransformation, for CCN(CC)CCNC(=O)c1ccc(NC(C)=O)cc1 [ACECAINIDE]
Compound NOT metabolized

====

Test: The drug is tested on Coprococcus comes strain: ATCC27758 for biotransformation. The drug concentrations were measured before and after a 12-h incubation by liquid-chromatography-coupled mass spectrometry (LC–MS)
Format: ADME
Parameters: dose 2 uM, timepoint 0 vs 12 hours
Conditions: 2 µM
Observed Property: Bacterial Biotransformation

Recorded Bacterial Biotransformation, per entry:
- Compound: "O=c1n(CCCN2CCN(c3cccc(Cl)c3)CC2)nc2ccccn12 [TRAZODONE]"
  Bacterial Biotransformation: "Compound NOT metabolized"
- Compound: "CCN(CC)CCNC(C(=O)OCCC(C)C)c1ccccc1.Cl.Cl (stereo unspecified)"
  Bacterial Biotransformation: "Compound NOT metabolized"
- Compound: "CN(C)CCC=C1c2ccccc2COc2ccccc21 [DOXEPIN]"
  Bacterial Biotransformation: "Compound NOT metabolized"
- Compound: "CC(C)NCC(O)COc1ccc(CCOCC2CC2)cc1 (stereo unspecified) [BETAXOLOL]"
  Bacterial Biotransformation: "Compound NOT metabolized"

Moving on to another compound below.
Bacterial Biotransformation for Cc1cc2c(s1)Nc1ccccc1N=C2N1CCN(C)CC1 [OLANZAPINE] ?
Compound NOT metabolized

====

Conditions: roseburia intestinalis, 12 h, 2 µM
Description: The drug is tested on Roseburia intestinalis strain: L1-82 for biotransformation. The drug concentrations were measured before and after a 12-h incubation by liquid-chromatography-coupled mass spectrometry (LC–MS)
Observed Property: Bacterial Biotransformation

- Compound: "CCOC(=O)[C@H](CCc1ccccc1)N[C@@H](C)C(=O)N1[C@H](C(=O)O)C[C@H]2CCCC[C@@H]21"
  Bacterial Biotransformation: "Compound NOT metabolized"
- Compound: "COc1cc2nc(N3CCN(C(=O)c4ccco4)CC3)nc(N)c2cc1OC"
  Bacterial Biotransformation: "Compound NOT metabolized"
- Compound: "CCCCCCOC(=O)/N=C(/N)c1ccc(NCc2nc3cc(C(=O)N(CCC(=O)OCC)c4ccccn4)ccc3n2C)cc1.CS(=O)(=O)O [DABIGATRAN ETEXILATE MESYLATE]"
  Bacterial Biotransformation: "Compound NOT metabolized"
- Compound: "N=C(N)NC(=O)Cc1c(Cl)cccc1Cl"
  Bacterial Biotransformation: "Compound NOT metabolized"
- Compound: "O=C(NC(Cc1cc(=O)[nH]c2ccccc12)C(=O)O)c1ccc(Cl)cc1 (stereo not drawn) [REBAMIPIDE]"
  Bacterial Biotransformation: "Compound NOT metabolized"
- Compound: "CN1CCC(OC(c2ccccc2)c2ccccc2)CC1"
  Bacterial Biotransformation: "Compound NOT metabolized"
- Compound: "C[C@@H](c1ncncc1F)[C@](O)(Cn1cncn1)c1ccc(F)cc1F"
  Bacterial Biotransformation: "Compound NOT metabolized"
- Compound: "CCc1oc2ccccc2c1C(=O)c1cc(Br)c(O)c(Br)c1"
  Bacterial Biotransformation: "Compound NOT metabolized"

With those in mind, consider the next compound.
So what does the record say about Bacterial Biotransformation for CCCc1nc2c(C)cc(-c3nc4ccccc4n3C)cc2n1Cc1ccc(-c2ccccc2C(=O)O)cc1 ?
Compound NOT metabolized

====

Conditions: bacteroides stercoris, 12 h, 2 µM
Observed Property: Bacterial Biotransformation

- Compound: "C[C@]12CCC(=O)C=C1[C@@H]1C[C@@H]1[C@H]1[C@@H]3[C@@H]4C[C@@H]4[C@@]4(CCC(=O)O4)[C@@]3(C)CC[C@@H]12"
  Observed Property: "Bacterial Biotransformation"
  Recorded Result: "Compound NOT metabolized"
- Compound: "CN1C[C@H](C(=O)N[C@]2(C)O[C@@]3(O)[C@@H]4CCCN4C(=O)[C@H](Cc4ccccc4)N3C2=O)C=C2c3cccc4[nH]cc(c34)C[C@H]21.CN1C[C@H](C(=O)N[C@]2(C)O[C@@]3(O)[C@@H]4CCCN4C(=O)[C@H](Cc4ccccc4)N3C2=O)C=C2c3cccc4[nH]cc(c34)C[C@H]21.O=C(O)C(O)C(O)C(=O)O [ERGOTAMINE TARTRATE]"
  Observed Property: "Bacterial Biotransformation"
  Recorded Result: "Compound metabolized"
- Compound: "NC(=O)N1c2ccccc2CC(=O)c2ccccc21 [OXCARBAZEPINE]"
  Observed Property: "Bacterial Biotransformation"
  Recorded Result: "Compound metabolized"
- Compound: "C[C@@H](CO)NC(=O)[C@@H]1C=C2c3cccc4[nH]cc(c34)C[C@H]2N(C)C1.O=C(O)/C=C\\C(=O)O [ERGONOVINE MALEATE]"
  Observed Property: "Bacterial Biotransformation"
  Recorded Result: "Compound NOT metabolized"
- Compound: "Fc1ccc([C@@H]2CCNC[C@H]2COc2ccc3c(c2)OCO3)cc1"
  Observed Property: "Bacterial Biotransformation"
  Recorded Result: "Compound metabolized"
- Compound: "O=c1[nH]c2ccccc2n1C1CCN(CCCC(c2ccc(F)cc2)c2ccc(F)cc2)CC1 [PIMOZIDE]"
  Observed Property: "Bacterial Biotransformation"
  Recorded Result: "Compound NOT metabolized"

# query: Bacterial Biotransformation of entry CNNCc1ccc(C(=O)NC(C)C)cc1
Compound NOT metabolized

I'd like to know its Bacterial Biotransformation. The compound in question is CC(CN1c2ccccc2Sc2ccccc21)N(C)C (stereo not given)
Compound NOT metabolized

Name the recorded Bacterial Biotransformation for Cc1cc2c(s1)Nc1ccccc1N=C2N1CCN(C)CC1 .
Compound NOT metabolized

# query: Bacterial Biotransformation of entry CCc1nc(N)nc(N)c1-c1ccc(Cl)cc1
Compound NOT metabolized

So what does the record say about Bacterial Biotransformation for COc1ccc(CCN(C)CCCC(C#N)(c2ccc(OC)c(OC)c2)C(C)C)cc1OC (stereo not given) ?
Compound metabolized

Could you tell me which Bacterial Biotransformation is on file for C#C[C@]1(OC(C)=O)CC[C@H]2[C@@H]3CCC4=C[C@@H](OC(C)=O)CC[C@@H]4[C@H]3CC[C@@]21C [ETHYNODIOL DIACETATE] ?
Compound NOT metabolized

Looking for the measured Bacterial Biotransformation of O=P(O)(O)O.c1ccc(CN(CC2=NCCN2)c2ccccc2)cc1 [ANTAZOLINE PHOSPHATE] , can you help?
Compound NOT metabolized

Could you share which Bacterial Biotransformation value was measured for CCc1oc2ccccc2c1C(=O)c1cc(Br)c(O)c(Br)c1 ?
Compound NOT metabolized

Quick one: Bacterial Biotransformation for CC(=O)O[C@]1(C(C)=O)CC[C@H]2[C@@H]3C=C(C)C4=CC(=O)CC[C@]4(C)[C@H]3CC[C@@]21C [MEGESTROL ACETATE] ?
Compound metabolized
